The following compounds are shown together with reported composite z-score values.
# assayed_system: Neurogenic locus notch homolog protein 3 (Homo sapiens) (UniProt Q9UM47)
# Sequence (Q9UM47 whole entry, looked up): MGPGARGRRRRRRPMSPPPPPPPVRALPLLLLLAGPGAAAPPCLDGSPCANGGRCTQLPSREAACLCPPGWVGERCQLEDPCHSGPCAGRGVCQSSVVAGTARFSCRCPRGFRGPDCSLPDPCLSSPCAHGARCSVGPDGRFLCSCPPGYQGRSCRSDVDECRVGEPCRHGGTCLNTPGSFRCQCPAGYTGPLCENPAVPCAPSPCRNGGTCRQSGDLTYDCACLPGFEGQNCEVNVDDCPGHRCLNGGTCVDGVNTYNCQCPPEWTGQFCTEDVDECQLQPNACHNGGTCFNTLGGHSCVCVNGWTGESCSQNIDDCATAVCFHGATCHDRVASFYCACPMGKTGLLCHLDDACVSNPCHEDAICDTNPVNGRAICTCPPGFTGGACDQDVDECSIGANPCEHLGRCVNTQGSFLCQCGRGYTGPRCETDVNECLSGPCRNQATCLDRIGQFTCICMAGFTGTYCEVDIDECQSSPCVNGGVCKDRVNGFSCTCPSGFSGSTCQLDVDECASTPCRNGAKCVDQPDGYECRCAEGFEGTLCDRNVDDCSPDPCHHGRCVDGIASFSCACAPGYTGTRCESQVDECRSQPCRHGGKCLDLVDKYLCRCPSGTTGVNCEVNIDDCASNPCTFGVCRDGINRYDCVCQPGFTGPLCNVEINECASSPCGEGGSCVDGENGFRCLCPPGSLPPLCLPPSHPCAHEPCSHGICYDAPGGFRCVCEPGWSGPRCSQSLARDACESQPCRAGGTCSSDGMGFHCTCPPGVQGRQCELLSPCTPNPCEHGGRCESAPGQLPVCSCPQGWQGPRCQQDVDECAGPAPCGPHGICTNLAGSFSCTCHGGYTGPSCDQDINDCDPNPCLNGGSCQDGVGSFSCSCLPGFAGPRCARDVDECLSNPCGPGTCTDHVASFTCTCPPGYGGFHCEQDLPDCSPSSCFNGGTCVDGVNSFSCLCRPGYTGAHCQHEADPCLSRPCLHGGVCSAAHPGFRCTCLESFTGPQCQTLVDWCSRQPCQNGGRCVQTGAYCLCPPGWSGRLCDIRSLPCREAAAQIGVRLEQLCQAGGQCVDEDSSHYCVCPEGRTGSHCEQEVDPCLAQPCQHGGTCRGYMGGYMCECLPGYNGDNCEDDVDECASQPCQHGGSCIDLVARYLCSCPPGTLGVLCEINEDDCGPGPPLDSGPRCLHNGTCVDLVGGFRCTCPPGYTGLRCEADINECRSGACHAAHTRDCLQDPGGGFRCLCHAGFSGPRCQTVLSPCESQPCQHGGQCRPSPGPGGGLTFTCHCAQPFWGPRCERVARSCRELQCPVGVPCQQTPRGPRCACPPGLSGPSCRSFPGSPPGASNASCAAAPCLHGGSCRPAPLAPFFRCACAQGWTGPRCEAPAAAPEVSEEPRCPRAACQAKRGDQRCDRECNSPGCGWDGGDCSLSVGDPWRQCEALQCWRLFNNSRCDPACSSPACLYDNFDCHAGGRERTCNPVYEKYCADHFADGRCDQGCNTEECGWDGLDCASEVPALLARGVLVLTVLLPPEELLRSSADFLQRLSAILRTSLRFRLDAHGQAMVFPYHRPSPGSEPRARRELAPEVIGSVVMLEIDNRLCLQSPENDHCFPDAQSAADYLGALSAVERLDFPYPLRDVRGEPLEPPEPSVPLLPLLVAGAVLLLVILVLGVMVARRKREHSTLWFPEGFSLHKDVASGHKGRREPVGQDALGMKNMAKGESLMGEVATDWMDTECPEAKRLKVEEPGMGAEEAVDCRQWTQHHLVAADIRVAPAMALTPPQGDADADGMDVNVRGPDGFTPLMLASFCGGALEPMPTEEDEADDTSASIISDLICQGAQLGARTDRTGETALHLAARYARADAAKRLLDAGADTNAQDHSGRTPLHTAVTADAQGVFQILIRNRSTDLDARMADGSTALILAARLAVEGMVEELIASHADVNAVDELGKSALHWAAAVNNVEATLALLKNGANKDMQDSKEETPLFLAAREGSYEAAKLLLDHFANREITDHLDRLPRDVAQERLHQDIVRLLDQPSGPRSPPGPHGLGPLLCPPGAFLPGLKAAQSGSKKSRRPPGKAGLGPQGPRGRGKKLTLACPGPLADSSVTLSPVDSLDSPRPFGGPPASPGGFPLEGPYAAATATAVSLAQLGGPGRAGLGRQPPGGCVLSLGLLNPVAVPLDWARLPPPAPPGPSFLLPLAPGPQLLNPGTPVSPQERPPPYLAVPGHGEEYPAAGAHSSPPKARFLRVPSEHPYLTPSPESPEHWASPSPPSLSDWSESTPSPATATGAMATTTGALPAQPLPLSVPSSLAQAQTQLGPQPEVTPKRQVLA
# assay_info: small molecules binding NOTCH3 protein – biochemical, 635/667 nm fluorescence, primary screen (AID 1096)
# condition_parameters: small-molecule microarray, 635 nm fluorescence, higher = more signal

# compound, composite z-score
measured = [
    ("CCCC[C@H]1OB(O)C[C@H]2C1=C(COc1ccccc1)C[C@H]1C(=O)N(Cc3ccccc3)C(=O)[C@H]12", 0.862),
    ("CO[C@H]1O[C@H](CO)[C@@H](OC(=O)Nc2cccc(F)c2)[C@H](OC(=O)Nc2ccccc2-c2ccccc2)[C@@H]1OC(=O)Nc1ccccc1-c1ccccc1", 1.05),
    ("C=CCC(OC(C)=O)[C@@H]1[C@@H](N(Cc2cc3ccccc3o2)C(=O)c2cccc3ccccc23)c2cc(OCCCO)ccc2N1C(=O)Cc1ccc(OC)cc1 (stereo partly drawn)", -0.351),
    ("Cc1ccc(S(=O)(=O)N2CC(C(=O)O)=CCC2c2ccccc2)cc1 (stereo not drawn)", -0.231),
    ("O=c1cccc(-c2ccc3ccccc3c2)o1", -0.349),
    ("C=C(COC)C(=O)CC[C@@H](OC(=O)c1ccccc1-c1ccccc1C(=O)O)c1ccc(CO)o1", 0.314),
    ("[N-]=[N+]=Nc1ccccc1C[C@]1(C(=O)N2CCCCC2)N=C(c2ccc(OCCCO)cc2)O[C@H]1c1ccccc1N=[N+]=[N-]", 1.05),
    ("CO[C@H]1O[C@H](CO)[C@@H](OC(=O)Nc2ccc3c(c2)OCO3)[C@H](OC(=O)Nc2ccc3c(c2)OCO3)[C@H]1OC(=O)Nc1ccc2c(c1)OCO2", 1.03),
]
